Would you kindly list Kd for each of these binders?
Biological target: human type II collagen (type II collagen alpha I chain) (human) (UniProt P02458)
Experiment: SPR, Biacore 3000, Langmuir 1:1 model
Response body: numeric value in nM, unit text excluded.

## Input Which Kd is listed for 210987 (SEQ ID NO: 36) (designed binder, not shown: small tags and cut ends) IAAKFDEAQQAAFYEILHLPNLTEQQRNYFIQWLRDDPSVSLEVLGTAQRLNDSQAPKIAAKFDEAQQLAFYQILHLENLTEEQRNAFIQSLRDDPSVSLEVLGEAIKLNLSQAPK ?
## Output 169

## Input Which Kd is listed for CID 211999 (SEQ ID NO: 38), dimer of SEQ ID NO: 2 (directly joint monomers) (designed binder, not shown: small tags and cut ends) IAAKFDEAQSAADSEILHLPNLTEQQRHYFRRWLSDDPSVSTHILTQAQHLNDDQAPKIAAKFDEAQSAADSEILHLPNLTEQQRHYFRRWLSDDPSVSTHILTQAQHLNDDQAPKSAWSHPQFEK ?
## Output 127

## Input Which Kd is listed for CID 212000 (SEQ ID NO: 39), dimer of SEQ ID NO: 2 with linker between the monomers (designed binder, not shown: small tags and cut ends) IAAKFDEAQSAADSEILHLPNLTEQQRHYFRRWLSDDPSVSTHILTQAQHLNDDQAPKGGGGSGGGGSGGGGSGGGGSIAAKFDEAQSAADSEILHLPNLTEQQRHYFRRWLSDDPSVSTHILTQAQHLNDDQAPKSAWSHPQFEK ?
## Output 180
